Test system: brain, spinal cord, and DRG of the NHPs
Assay: NGS fold enrichment of synthetic library (passage 3) in NHPs, first cross-species screen
Format: in vivo, cynomolgus macaques (Macaca fascicularis)
Details: synthetic library passage 3, intravenous, RNA from spinal cord of NHPs, NGS, relative to wild-type AAV9
# Fold enrichment over AAV9 in the spinal cord of NHPs values compiled below
Reported Endpoint: Fold enrichment over AAV9 in the spinal cord of NHPs

{"Sequence Data": "GSGQNQQIPHVHQT", "Result": "0.768 fold"}
{"Sequence Data": "GSGNMHASRQNQQT", "Result": "3.878 fold"}
{"Sequence Data": "GSGYVITGSQNQQT", "Result": "6.271 fold"}
{"Sequence Data": "GSGQNQQSANKILT", "Result": "3.789 fold"}
{"Sequence Data": "GSGQNQQHASSNNT", "Result": "7.155 fold"}
{"Sequence Data": "GSGQNQQGTGVSHT", "Result": "4.295 fold"}
{"Sequence Data": "GSGQALSSSGNQQT", "Result": "6.860 fold"}
{"Sequence Data": "GSIQYQSSGQNQQT", "Result": "2.601 fold"}
{"Sequence Data": "GSGQNQRATLSNQT", "Result": "1.084 fold"}

src = patent US20260250318A1
